# system-tested: EZH2/SUZ/EED (Homo sapiens, UniProt O75530+Q15022+Q15910)
# Sequence (Q15910 2-746 limits assumed): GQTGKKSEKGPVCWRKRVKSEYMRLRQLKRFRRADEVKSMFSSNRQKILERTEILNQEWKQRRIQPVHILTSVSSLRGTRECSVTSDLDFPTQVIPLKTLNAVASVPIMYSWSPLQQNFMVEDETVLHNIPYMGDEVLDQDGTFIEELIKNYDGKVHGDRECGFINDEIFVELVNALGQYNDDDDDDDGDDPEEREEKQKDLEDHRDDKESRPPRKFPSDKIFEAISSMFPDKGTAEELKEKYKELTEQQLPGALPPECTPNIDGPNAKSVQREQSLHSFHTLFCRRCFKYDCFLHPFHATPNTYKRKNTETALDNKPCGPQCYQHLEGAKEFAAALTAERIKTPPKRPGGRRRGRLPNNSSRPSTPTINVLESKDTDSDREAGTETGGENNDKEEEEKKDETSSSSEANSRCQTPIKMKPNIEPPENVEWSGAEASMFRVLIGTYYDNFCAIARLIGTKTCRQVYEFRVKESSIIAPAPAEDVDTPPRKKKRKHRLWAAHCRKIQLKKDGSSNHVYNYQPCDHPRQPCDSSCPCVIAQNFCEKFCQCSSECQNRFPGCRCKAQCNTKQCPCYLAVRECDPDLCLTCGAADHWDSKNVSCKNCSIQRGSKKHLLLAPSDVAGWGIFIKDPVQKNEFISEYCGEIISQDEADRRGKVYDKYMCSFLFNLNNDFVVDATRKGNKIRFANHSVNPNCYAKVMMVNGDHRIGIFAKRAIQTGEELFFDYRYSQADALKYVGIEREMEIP
# Sequence (Q15022 2-739 partner limits assumed): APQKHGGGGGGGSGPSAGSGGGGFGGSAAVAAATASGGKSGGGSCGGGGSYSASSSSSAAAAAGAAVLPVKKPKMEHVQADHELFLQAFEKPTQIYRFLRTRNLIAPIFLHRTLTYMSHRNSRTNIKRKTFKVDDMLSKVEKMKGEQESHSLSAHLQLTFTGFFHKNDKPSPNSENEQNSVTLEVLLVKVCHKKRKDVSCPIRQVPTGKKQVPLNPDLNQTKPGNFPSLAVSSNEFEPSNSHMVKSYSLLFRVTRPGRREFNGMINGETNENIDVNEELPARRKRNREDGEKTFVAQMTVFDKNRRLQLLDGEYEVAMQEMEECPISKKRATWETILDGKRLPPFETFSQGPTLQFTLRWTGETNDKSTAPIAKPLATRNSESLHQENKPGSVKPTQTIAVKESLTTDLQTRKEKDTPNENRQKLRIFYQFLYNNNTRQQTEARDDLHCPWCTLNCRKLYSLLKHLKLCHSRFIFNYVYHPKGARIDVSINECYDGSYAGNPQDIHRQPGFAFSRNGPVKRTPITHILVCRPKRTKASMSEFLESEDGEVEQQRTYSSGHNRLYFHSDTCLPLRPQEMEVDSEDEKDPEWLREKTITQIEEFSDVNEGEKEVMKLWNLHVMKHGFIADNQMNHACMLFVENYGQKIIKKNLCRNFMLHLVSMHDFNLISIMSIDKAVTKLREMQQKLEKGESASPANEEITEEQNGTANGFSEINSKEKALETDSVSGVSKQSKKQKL
# Sequence (O75530 2-441 partner limits assumed): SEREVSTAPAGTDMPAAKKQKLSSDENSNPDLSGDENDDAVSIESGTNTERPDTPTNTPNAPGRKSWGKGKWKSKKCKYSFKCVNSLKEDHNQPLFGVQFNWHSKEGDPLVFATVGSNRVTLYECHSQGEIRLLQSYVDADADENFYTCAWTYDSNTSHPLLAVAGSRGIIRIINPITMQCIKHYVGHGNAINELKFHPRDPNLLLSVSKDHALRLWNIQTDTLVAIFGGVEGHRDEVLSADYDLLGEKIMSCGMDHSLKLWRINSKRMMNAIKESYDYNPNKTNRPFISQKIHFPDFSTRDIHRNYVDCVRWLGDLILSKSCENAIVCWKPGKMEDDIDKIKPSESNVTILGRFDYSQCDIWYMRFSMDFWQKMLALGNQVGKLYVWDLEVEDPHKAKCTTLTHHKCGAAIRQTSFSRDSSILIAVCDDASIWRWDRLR
# test-name: Inhibitory effect on EZH2 by the MTase-Glo method (Test Example 1)
# stated-conditions: EZH2/SUZ/EED 6.25 nM, H3 peptide 10 μM, SAM 3 μM, 30° C. 3 h, read-out: Test Example 1 WT EZH2 IC50
pIC50: −log10 of the molar value.
measured-quantity: pIC50

Study these solved cases before continuing.
{"molecule": "Cc1cc(C)c(CN(C)C(=O)c2cc(Cl)c3c(c2C)O[C@@H]([C@H]2CC[C@@H](N(C)C)CC2)CO3)c(=O)[nH]1", "system-tested": "EZH2/SUZ/EED (Homo sapiens, UniProt O75530+Q15022+Q15910)", "pIC50": 7.59}
{"molecule": "COc1cc(C)[nH]c(=O)c1CNC(=O)c1cc(Cl)c2c(c1C)O[C@@H]([C@H]1CC[C@@H](N(C)C)CC1)CO2", "system-tested": "EZH2/SUZ/EED (Homo sapiens, UniProt O75530+Q15022+Q15910)", "pIC50": 8.52}
{"molecule": "CSc1cc(C)[nH]c(=O)c1CNC(=O)c1cc(Cl)c2c(c1C)O[C@@H](C1CCN(CCF)CC1)CO2", "system-tested": "EZH2/SUZ/EED (Homo sapiens, UniProt O75530+Q15022+Q15910)", "pIC50": 8.35}
{"molecule": "CSc1cc(C)[nH]c(=O)c1CNC(=O)c1cc(Cl)c2c(c1C)O[C@@H]([C@H]1CC[C@@H](N3CCC3)CC1)CO2", "system-tested": "EZH2/SUZ/EED (Homo sapiens, UniProt O75530+Q15022+Q15910)", "pIC50": 8.29}

(I) COC1CN([C@H]2CC[C@@H]([C@H]3COc4c(Cl)cc(C(=O)NCc5c(SC)cc(C)[nH]c5=O)c(Cl)c4O3)CC2)C1
(II) Cc1cc(C)c(CNC(=O)c2cc(Cl)c3c(c2C)OC(C2CCC(N4CC(C(C)(C)O)C4)CC2)CO3)c(=O)[nH]1 (stereo not drawn)
Which entry has a larger number for pIC50, I or II ? Lab note: record the label of whichever item you select. I

====

# system-tested: EZH2/SUZ/EED (Homo sapiens, UniProt O75530+Q15022+Q15910)
# test-name: Inhibitory effect on EZH2 by the MTase-Glo method (Test Example 1)
# stated-conditions: EZH2/SUZ/EED 6.25 nM, H3 peptide 10 μM, SAM 3 μM, 30° C. 3 h, read-out: Test Example 1 WT EZH2 IC50
# Procedure: The compound was dissolved in DMSO, and the compound was serially diluted using ECHO665 and transferred to a 384-well reaction plate (Corning, 3824). […] After incubation, read with BMG PHERAStar. The luminescence signals obtained by positive control (maximum signal control) and negative control (minimum signal control) were normalized to obtain the inhibition rate of different concentrations of compounds. […]
measured-quantity: IC50 (nM)

Study these solved cases before continuing.
{"compound": "Cc1cc(C)c(CNC(=O)c2cc(Cl)c3c(c2Cl)OC[C@@H]([C@H]2CC[C@@H](N(C)C)CC2)O3)c(=O)[nH]1", "system-tested": "EZH2/SUZ/EED (Homo sapiens, UniProt O75530+Q15022+Q15910)", "numeric-value": 6.8}
{"compound": "CCS(=O)(=O)N1CCC([C@H]2COc3c(Cl)cc(C(=O)NCc4c(SC)cc(C)[nH]c4=O)c(C)c3O2)CC1", "system-tested": "EZH2/SUZ/EED (Homo sapiens, UniProt O75530+Q15022+Q15910)", "numeric-value": 2.3}

(A) Cc1cc(C)c(CNC(=O)c2cc(Cl)c3c(c2C)O[C@@H](C2CCN(CC4COC4)CC2)CO3)c(=O)[nH]1
(B) [2H]C([2H])([2H])OC1CN([C@H]2CC[C@@H]([C@H]3COc4c(Cl)cc(C(=O)NCc5c(SC)cc(C)[nH]c5=O)c(C)c4O3)CC2)C1
(C) Cc1cc(C)c(CNC(=O)c2cc(Cl)c3c(c2C)OC(C2CCC(N4CC(F)(F)C4)CC2)CO3)c(=O)[nH]1 (single isomer, unassigned) [Compound 58]
Sort the compounds on IC50; start with the lowest figure. Please list the labels in the order you were asked to rank them. B, A, C
